Biological target: T1, human soluble IL-6R (human, UniProt P08887 20-357)
T1 sequence: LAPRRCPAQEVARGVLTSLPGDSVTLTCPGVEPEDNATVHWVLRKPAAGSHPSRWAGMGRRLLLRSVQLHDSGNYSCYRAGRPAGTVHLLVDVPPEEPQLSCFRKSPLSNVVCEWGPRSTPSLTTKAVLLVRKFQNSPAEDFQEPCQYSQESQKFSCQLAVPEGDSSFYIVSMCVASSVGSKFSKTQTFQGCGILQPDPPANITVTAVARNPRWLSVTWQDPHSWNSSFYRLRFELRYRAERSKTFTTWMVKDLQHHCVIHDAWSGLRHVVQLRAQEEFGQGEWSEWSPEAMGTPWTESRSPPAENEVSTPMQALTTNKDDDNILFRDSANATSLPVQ
Experiment: cell-based or functional assay
Answer each item with its documented Residual STAT3 phosphorylation in HEK293 (IL-6 + sIL-6R; IL-6 trans signalling; 1% PE).
Your answer is read as %, so omit the unit and give the number.

Qu. For the binder candidate anti-IL-6R Fab clone 19 (Fab, V domains shown) VH: EVKLMESGGGLVQPGGSLKLSCAASGFTFSNYGMSWVRQTPDKRLELVAIMNSKGGSTYYPDSVMGRFTISRDNAKNTLYLQMSSLKSEDTAMYYCARDGYYTMDYWGQGTSVTVSS VL: DIVLTQSPASLAVSLGQRATISCRASKSVDSFGNSFMHWYQQKPGQSPRLLIFLASNLESGVPARFSGSGSRTDFTLTIDPVEADDAATYYCQQNNEDPYTFGGGTKLEIK , report Residual STAT3 phosphorylation in HEK293 (IL-6 + sIL-6R; IL-6 trans signalling; 1% PE).
Ans. 24

Qu. Answer with reported Residual STAT3 phosphorylation in HEK293 (IL-6 + sIL-6R; IL-6 trans signalling; 1% PE) of candidate anti-IL-6R Fab clone 07 (Fab, V domains shown) VH: EVKLVESGGGLVQPGGSLKLSCAASGFTFSSYAMSWVRQTADKRLELVANINSNGGSTYYPDSVKGRFTISRDNAKNTLFLQMSSLKSEDTAMYYCAREGYYTMDYWGQGTSVTVSS VL: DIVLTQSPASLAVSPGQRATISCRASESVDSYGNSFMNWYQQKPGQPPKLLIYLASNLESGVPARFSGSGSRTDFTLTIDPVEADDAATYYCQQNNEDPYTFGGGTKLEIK
Ans. 28

Qu. Provide Residual STAT3 phosphorylation in HEK293 (IL-6 + sIL-6R; IL-6 trans signalling; 1% PE) value for the following binder: candidate anti-IL-6R Fab clone 09 (Fab, V domains shown) VH: EVQLVESGGDLVQPGGSLKLSCAASGFTFSNYGMSWVRQTPDKRLELVAAINSNGGSTYYPDSVKGRFTISRDNAKNTLYLQMSSLKSEDTAMYYCARDGNYVSDYWGQGTTLTVSS VL: DIVLTQSPASLAVSLGQRATISCRASESVDSYGNSFMHWYQQKPGQPPKLLIYLASNLESGVPARFSGSGSRTDFTLTIDPVEADDAATYYCQQNNEDPWTFGGGTKLEIK
Ans. 38

Qu. Complete the entry with Residual STAT3 phosphorylation in HEK293 (IL-6 + sIL-6R; IL-6 trans signalling; 1% PE) for candidate anti-IL-6R Fab clone 20 (Fab, V domains shown) VH: EVKLMESGGGLVQPGGSLKLSCAASGFTFSNYGMSWVRQTPDKRLELVAIINSNGGSTYYPDSVKGRFTISRDNAKNTLYLQMSSLKSEDTAIYYCARDGNFVSDYWGQGTTLTVSS VL: DIVLTQSPASLAVSLGQRATISCRASESVDSYGNRFLNWYQQKPGQPPKLLIYLASNLESGVPARFSGSGSRTDFTLTIDPVEADDAATYYCQQNNEDPYTFGGGTKLEIK
Ans. 32
